Here the recorded apparent Kd (screen) is given for each entry.
assay.system: T1, TNFR1 (Homo sapiens, UniProt P19438)
T1 chain: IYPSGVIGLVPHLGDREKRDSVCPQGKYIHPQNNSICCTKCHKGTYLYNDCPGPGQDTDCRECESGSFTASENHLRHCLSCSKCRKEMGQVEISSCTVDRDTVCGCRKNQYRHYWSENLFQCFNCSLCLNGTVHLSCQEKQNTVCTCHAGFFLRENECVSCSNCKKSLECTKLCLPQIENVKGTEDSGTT
protocol.details: yeast display SC50
# unit: nM | format: bare number

# binder, readout.label, observed.result
data = [
    ("R14K (designed binder) MTLQELLREEALRKAEAEAFRYALELLAEKFPEQKEYLLDLAEEIESQIRSLSGVDVEDVRKFLDKEWAWVKELLAEHPAELAEVEAARAARLAELRAEVEAKVAA", "apparent Kd (screen)", 0.49),
]

Please report the measured apparent Kd (screen) for K35F (designed binder) MTLQELLREEALRRAEAEAFRYALELLAEKFPEQFEYLLDLAEEIESQIRSLSGVDVEDVRKFLDKEWAWVKELLAEHPAELAEVEAARAARLAELRAEVEAKVAA
0.539
